These data points were gathered from patent US20250320312A1.

target_or_system: Peptide 1: Biotin-…-[Tyr(PC)]-acid
Sequence (peptide, as listed by the source): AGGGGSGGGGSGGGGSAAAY
experiment_summary: scFv ELISA
The binders listed here are annotated with their OD450.
State just the number; it will be interpreted in OD450.

• PcOxP_DB03_C12 (scFv, V domains shown, scFv in periplasmic extract) VH: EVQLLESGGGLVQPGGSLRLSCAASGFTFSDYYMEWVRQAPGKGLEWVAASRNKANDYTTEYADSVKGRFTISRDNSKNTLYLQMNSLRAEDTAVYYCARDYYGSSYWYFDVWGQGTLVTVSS VL: DIQMTQSPSSLSASVGDRVTITCTASESLYSSKHKVHYLAWYQQKPGKAPKLLIYGASNRYGGVPSRFSGSGSGTDFTLTISSLQPEDFATYYCAQFYSYPLTFGGGTKVEIK = 2.74

Value of OD450 reported for the binder PcOxP_DB01_F03 (scFv, V domains shown, scFv in periplasmic extract) VH: EVQLLESGGGLVQPGGSLRLSCAASGFTFSDSYMEWVRQAPGKGLEWVAASRNKYNDYTTEYADSVKGRFTISRDNSKNTLYLQMNSLRAEDTAVYYCARDYYGSSYWYFDVWGQGTLVTVSS VL: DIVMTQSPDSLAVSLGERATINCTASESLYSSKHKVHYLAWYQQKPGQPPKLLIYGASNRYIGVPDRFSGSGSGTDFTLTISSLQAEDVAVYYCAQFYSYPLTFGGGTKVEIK is 0.8
